Dear all, I have gathered published IC50 values for Serine/threonine-protein kinase pim-2 (Homo sapiens, UniProt Q9P1W9); the list follows.
experimental endpoint: IC50 (nM)

# compound, measure unit, IC50
measured = [
    ("O=C(O)c1cc2cc(Br)cc(OCCc3ccncc3)c2o1", "nM", 21100),
    ("COc1cccc(-c2c[nH]c3ccc(-c4cncc(NCCN(C)C)n4)cc23)c1", "nM", 560),
    ("N[C@H]1CC[C@H](Nc2cc(Br)cc3cc(C(=O)O)oc23)CC1", "nM", 66),
    ("NC(=O)c1cc(Cl)c2c(Cl)c(I)n(C3CCC(N)CC3)c2n1 (stereo not given)", "nM", 6),
]

(A) COCCC#Cc1c(Cl)c2c(Cl)cc(C(N)=O)nc2n1[C@H]1CCCNC1
(B) Cc1nc2cccc3c2nc1N[C@@H](C)CCC[C@H]1CNC(=O)c2cc-3[nH]c21
Exercise: Which record would sort first by descending IC50, A or B ? Identify your selection by its label.
Solution: A
(A: 5.1 nM, B: 0.4 nM)

(1) COc1ncc2cc1NS(=O)(=O)c1cccc(c1)C(=O)NCC1=CC=C(S1)c1ncnc3c1SC2=C3C
(2) CN(C)CCNc1cncc(-c2ccc3[nH]cc(-c4ccc(OC(F)(F)F)cc4)c3c2)n1
(3) Cc1nnc(-c2cccc(-c3cnn4ccc(NCCN)nc34)c2)o1
Exercise: Please rank these compounds by IC50 in descending order. Please reply with the labels ordered as requested. Many thanks.
Solution: 2, 1, 3
